Molecular target: T1, GDF11 (UniProt O95390)
T1 sequence (looked up): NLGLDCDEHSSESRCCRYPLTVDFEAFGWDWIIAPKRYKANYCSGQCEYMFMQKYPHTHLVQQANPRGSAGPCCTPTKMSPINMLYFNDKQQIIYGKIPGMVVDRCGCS
Experiment: cell-based or functional assay
Threshold 70 ng/mL. IC50 (ng/mL), conditioned media below it: Satisfied. IC50 (ng/mL), conditioned media at it or above: Not satisfied.

Look over these answered cases.
ActRIIB(23-131)-hFc (Fc fusion, not shown: a dimerising Fc or GST) EAETRECIYYNANWELERTNQSGLERCEGEQDKRLHCYASWRNSSGTIELVKKGCWLDDFNCYDRQECVATEENPQVYFCCCEGNFCNERFTHLPEAGGPEVTYEPPPT	Satisfied
ActRIIB(21-131)-hFc (Fc fusion, not shown: a dimerising Fc or GST) RGEAETRECIYYNANWELERTNQSGLERCEGEQDKRLHCYASWRNSSGTIELVKKGCWLDDFNCYDRQECVATEENPQVYFCCCEGNFCNERFTHLPEAGGPEVTYEPPPT	Not satisfied

Pending binder:
Query: Criterion: IC50 (ng/mL), conditioned media strictly below 70 ng/mL. Is it met by ActRIIB(20-131)-hFc (Fc fusion, not shown: a dimerising Fc or GST) GRGEAETRECIYYNANWELERTNQSGLERCEGEQDKRLHCYASWRNSSGTIELVKKGCWLDDFNCYDRQECVATEENPQVYFCCCEGNFCNERFTHLPEAGGPEVTYEPPPT ?
Result: Not satisfied
